Test: NCI Yeast Anticancer Drug Screen. Data for the mec2-1 strain (AID 157)
Conditions: S. cerevisiae mec2-1 strain, at 100.0 µM
About 79,000 compounds went through this panel and 15% of them were active in at least one assay; those are over-represented in the sample as a whole. The source made the active and inactive calls. Cut-off read from the data, not from the text of the source: active = growth inhibition above about 70%; inactive = the rest.
Select the correct class. Options are 1 for active, 0 for inactive and nothing else.

molecule | group.label
CCOP1(=O)C=C(Sc2ccc([N+](=O)[O-])cc2[N+](=O)[O-])C(C)(C)O1 (stereo not drawn) | 1
OCCNCCOc1ccc(/C(=C(/Cl)c2ccccc2)c2ccccc2)cc1 | 1
O=C(NC(=S)Nc1ccccn1)c1ccccc1 | 0

Q) Record lookup: outcome of this test for CCCCC(CC)C(=O)Oc1ccc(C(=O)c2ccccc2)c(O)c1 (stereo not drawn) ?
A) 1

Q) Which result was noted for this molecule in the test: O=C1C=CC(=O)N1c1ccc(N2C(=O)C=CC2=O)cc1
A) 1

Q) Just curious, what result did CN[C@@H]1C[C@H]2O[C@@](C)([C@@H]1OC)n1c3ccccc3c3c4c(c5c6ccccc6n2c5c31)C(=O)N[C@@H]4O get here?
A) 0

Q) Hi, do you know how CC(=O)Oc1ccc(N2C(=O)C3c4[nH]c5ccccc5c4C4CCC(C(C)(C)C)CC4C3C2=O)cc1 (stereo not drawn) came out in this test?
A) 1

Q) Check the results log: what was the call for CCN(CC)N=Nc1c(C(N)=O)n[nH]c1C ?
A) 0

Q) Could you please tell me the result logged for CCCCCCSc1nc(COC(=O)NC)c(COC(=O)NC)n1C in this assay?
A) 1

Q) What classification did O=c1[nH]c2ccccc2c2nc3ccccc3n12 end up with in this test?
A) 0
